Target: HIV-1 Env of isolate MGRM-G-027 (subtype G), on pseudovirus (HIV-1)
Assay: cell-based or functional assay
result.type: IC50 (µg/mL), neutralization of pseudovirus
Give bare numbers, in µg/mL.

Asked: Determine from records and report IC50 (µg/mL), neutralization of pseudovirus for PGT-123 (antibody, V domains shown) VH: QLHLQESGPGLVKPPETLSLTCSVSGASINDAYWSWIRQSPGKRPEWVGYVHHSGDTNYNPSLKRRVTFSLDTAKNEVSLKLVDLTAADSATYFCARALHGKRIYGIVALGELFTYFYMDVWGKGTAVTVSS VL: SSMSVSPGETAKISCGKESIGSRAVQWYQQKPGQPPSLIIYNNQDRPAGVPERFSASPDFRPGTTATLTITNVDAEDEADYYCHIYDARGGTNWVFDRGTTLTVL
Given back: 0.182
